Source of measurements: patent US10730863B2

target: FXR (Homo sapiens (Human)); assay: FXR EC50 (FXR agonist activity reported with each example); type: cell-based
Sequence (Q96RI1 262-486): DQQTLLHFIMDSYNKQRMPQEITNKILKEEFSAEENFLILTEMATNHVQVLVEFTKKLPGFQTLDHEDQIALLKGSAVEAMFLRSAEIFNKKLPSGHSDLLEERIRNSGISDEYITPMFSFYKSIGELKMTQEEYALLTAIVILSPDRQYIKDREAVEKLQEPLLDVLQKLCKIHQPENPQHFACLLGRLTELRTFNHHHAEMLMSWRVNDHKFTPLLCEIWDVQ
pEC50: −log10 of the molar value.
Binary classification by pEC50, with 7 as an inclusive lower bound for criterion met; all other cases are criterion not met.

Example results:
| Compound | Classification |
| --- | --- |
| O=C(O)c1c(F)ccc(-c2noc(C34CCC(OCc5c(-c6c(Cl)cncc6Cl)noc5C5CC5)(CC3)CC4)n2)c1F | criterion not met |
| O=C(O)c1ccc(-c2noc(C34CCC(COCc5c(-c6ccccc6OC(F)(F)F)noc5C5CC5)(CC3)CO4)n2)cc1 | criterion not met |

Data request: Could you tell me if the measured pEC50 of O=C(O)c1cc(OC(F)F)c2cc(C#CC34CCC(OCc5c(-c6c(Cl)cncc6Cl)noc5C5CC5)(CC3)CC4)ccc2n1 reaches 7 or more?
Data returned: criterion met

Data request: Could you tell me if the measured pEC50 of O=C(O)c1cccc(OCC23CCC(COCc4c(-c5c(Cl)cccc5Cl)noc4C4CC4)(CC2)CC3)c1 reaches 7 or more?
Data returned: criterion not met

Data request: Could you tell me if the measured pEC50 of N#Cc1cccc(OCC23CCC(OCc4c(-c5c(Cl)cccc5Cl)noc4C4CC4)(CC2)CC3)c1 reaches 7 or more?
Data returned: criterion not met
